# procedure.summary: Phase-solubility experiments in aqueous HPCD at 30.0±0.2°C (chlorambucil, lomustine, melphalan)
# condition.label: water (0% hpcd)
metric.name: solubility (µg/mL)

[[record]]
given_smiles = "O=NN(CCCl)C(=O)NC1CCCCC1"
observed_result = 180


====

# procedure.summary: physchem
# condition.label: water (0% hpcd)
metric.name: solubility at 84 h (µg/mL)

[[record]]
given_smiles = "O=C(O)CCCc1ccc(N(CCCl)CCCl)cc1"
metric_name = "solubility at 84 h"
value_units = "µg/mL"
observed_result = 410


====

# procedure.summary: Phase-solubility experiments in aqueous HPCD at 25±1°C
# condition.label: 25% w/v hpcd
metric.name: solubility (mg/mL)

[[record]]
molecule = "C[C@@H]1C[C@H]2[C@@H]3CCC4=CC(=O)C=C[C@]4(C)[C@@]3(F)[C@@H](O)C[C@]2(C)[C@@]1(O)C(=O)CO"
metric_name = "solubility"
observed_result = 24.2

[[record]]
molecule = "C#C[C@]1(O)CC[C@H]2[C@@H]3CCc4cc(OC)ccc4[C@H]3CC[C@@]21C"
metric_name = "solubility"
observed_result = 7.13

[[record]]
molecule = "C#C[C@]1(O)CC[C@H]2[C@@H]3CCc4cc(O)ccc4[C@H]3CC[C@@]21C"
metric_name = "solubility"
observed_result = 34.5

[[record]]
molecule = "C#C[C@]1(OC(C)=O)CC[C@H]2[C@@H]3CCC4=CC(=O)CC[C@@H]4[C@H]3CC[C@@]21C [Norethindrone acetate]"
metric_name = "solubility"
observed_result = 9.41


====

# procedure.summary: physchem
# condition.label: 1% aqueous hpcd
metric.name: solubility

[[record]]
given_smiles = "N[C@@H](Cc1ccc(N(CCCl)CCCl)cc1)C(=O)O"
observed_result = "4160 µg/mL"


====

# procedure.summary: physchem
# condition.label: water
Threshold check on solubility: at or above 8 µg/mL gives Yes, strictly below gives No.

[[record]]
compound = "C#C[C@]1(OC(C)=O)CC[C@H]2[C@@H]3CCC4=CC(=O)CC[C@@H]4[C@H]3CC[C@@]21C [Norethindrone acetate]"
classification = "No"

[[record]]
compound = "CN1CCN=C(c2ccccc2)c2cc(Cl)ccc21"
classification = "Yes"

[[record]]
compound = "C#C[C@]1(O)CC[C@H]2[C@@H]3CCc4cc(OC)ccc4[C@H]3CC[C@@]21C"
classification = "No"

[[record]]
compound = "CN(Cc1cnc2nc(N)nc(N)c2n1)c1ccc(C(=O)N[C@@H](CCC(=O)O)C(=O)O)cc1 [Methotrexate]"
classification = "Yes"

[[record]]
compound = "O=C1NC(=O)C(c2ccccc2)(c2ccccc2)N1"
classification = "Yes"

[[record]]
compound = "CC1=C(/C=C/C(C)=C/C=C/C(C)=C/CO)C(C)(C)CCC1 [All-trans-Retinol]"
classification = "No"


====

# procedure.summary: Aqueous solubility and stability of the E2-CDS-HPCD complex
# Assay type: physicochemical
# condition.label: 20% w/v aqueous hpcd; 5 mg E2-CDS/mL at 20% w/v cyclodextrin, room temperature in the dark
metric.name: half-life

[[record]]
compound = "CN1C=CCC(C(=O)O[C@H]2CC[C@H]3[C@@H]4CCc5cc(O)ccc5[C@H]4CC[C@]23C)=C1 [Example E2-CDS]"
metric_name = "half-life"
observed_result = "~12.5 days"

